# Test system: ACHN renal
# protocol: NCI-60 one-dose screen, 48 h
# experimental conditions: 10 µM unless noted
This is part of a sample that, as a whole, favours compounds with a hit. Of some 83,000 tested, about 20% had one in any assay. Calls of active or inactive are those of the source. The calls were made as follows: active = growth percent below 10; inactive = the rest.
Outcome codes: 1.0 = active, 0.0 = inactive

N#Cc1ccc(O)c(C2=NCC(c3ccccc3)O2)c1 (stereo unspecified) : 0.0
O=C(/C=C/c1ccco1)Nc1ncc(Cc2cccc(C(F)(F)F)c2)s1 : 0.0
CN1CCc2nc3sc(C(N)=O)c(N)c3c(-c3cccs3)c2C1 : 1.0
Fc1cccc(Oc2ccc(Nc3ncnc4ccc(OCCCN5CCOCC5)cc34)cc2Cl)c1 : 0.0
CCSc1nc2scc(C)c2c(=O)[nH]1 : 0.0
CCOc1ccc(NC(=O)CSc2oc(-c3ccccc3)nc2S(=O)(=O)c2ccc(C)cc2)cc1 : 0.0

* * *

# Test system: MOLT-4 leukemia
# protocol: NCI-60 one-dose screen, 48 h (100 = growth as untreated, 0 = no growth, -100 = all killed)
# experimental conditions: 10 µM unless noted
About 83,000 compounds went through this panel and 20% of them were active in at least one assay; those are over-represented in the sample as a whole. Active and inactive are the calls of the source. The calls were made as follows: active = growth percent below 10; inactive = the rest.
endpoint label: growth

N#Cc1c(-c2ccc(Cl)cc2)nc(NN2C(=O)c3ccccc3C2=O)nc1N1CCOCC1 : 97.8% (inactive)
O=C(/C=C/c1ccccc1)Nc1ncc(Cc2ccccc2Cl)s1 : 34.2% (inactive)
COc1ccc(-c2ccc(-c3ccc(C(=N)N)cc3)s2)cc1Cl : -50.1% (active)
O=c1scc(-c2ccc(C(F)(F)F)cc2)s1 : 94.5% (inactive)
CC(C)c1ccc(-n2c(=S)[nH]c3sc4cc(O)ccc4c3c2=O)cc1 : 98% (inactive)
O=S(=O)(Nc1cc(F)cc(Cl)c1)c1ccc(-c2cnc(C3CC3)o2)cc1 : 31.9% (inactive)
O=C1/C(=C/c2ccccc2O)CC/C1=C\c1ccccc1O : 6.67% (active)
COc1ccc2c(c1)c(-c1nc(-c3c[nH]c4ccncc34)cs1)cn2C : -42.8% (active)
CN(C)c1ccc(-c2c(C#N)c(N)nn2C(=O)c2ccc(NC(=O)c3ccccn3)cc2)cc1 : 99.5% (inactive)
COc1ccc(-c2nc3c(ncc4ccc(=O)[nH]c43)s2)cc1 : 31.8% (inactive)
COc1ccc(C(C)=O)cc1S(=O)(=O)Nc1c(N)nc(SC)[nH]c1=O : 99.6% (inactive)
Oc1c(Br)cc(Br)c2ccc(Cn3cc(-c4ccc(C(F)(F)F)cc4)nn3)nc12 : 11.3% (inactive)
CCOC(=O)c1cc2c(n1C)-c1nc(NC(C)=O)sc1CCC2 : 81.6% (inactive)
Cc1ccc(CNc2ccc3nc(CCC4CCCCC4)[nH]c3c2)cc1 : 19.5% (inactive)
O=C(Nc1cccc(-c2ccc(N3CCOCC3)nn2)c1)Nc1cccc(C(F)(F)F)c1 : 22.9% (inactive)
O=C(CN1C(=O)S/C(=C\c2ccccc2)C1=O)Nc1ncc(Cc2ccccc2Cl)s1 : 85.9% (inactive)
C=CCOC(=O)Nc1cccn([C@H](Cc2ccccc2)C(=O)NCCC(C)C)c1=O : 93.6% (inactive)
COc1cc(/C=C2/C=C(c3ccccc3)N(CCc3ccc(S(N)(=O)=O)cc3)C2=O)cc(OC)c1OC : 83.1% (inactive)
O=C(O)CCN1C(=O)/C(=C/C(Cl)=C/c2ccccc2)SC1=S : 10.6% (inactive)
CCCC/C(CC)=N\NS(=O)(=O)c1ccc([N+](=O)[O-])cc1 : 101% (inactive)
CCOC(=O)C/C(=N\Nc1cc(=O)[nH]c2ccc(Br)cc12)C(=O)OCC : -15.7% (active)

* * *

# System: UACC-62 melanoma
# protocol: NCI-60 one-dose screen, 48 h (100 = growth as untreated, 0 = no growth, -100 = all killed)
# experimental conditions: 10 µM unless noted
This is part of a sample that, as a whole, favours compounds with a hit. Of some 83,000 tested, about 20% had one in any assay.
Entries are sorted into classes by growth as follows: lower level: < -30%; middle level: ≥ -30% and < 80%; upper level: ≥ 80%

COc1ccc(C/C(C)=C(\c2ccc(Cl)cc2)c2ccc(OCCN3CCCCC3)cc2)cc1 : upper level
C/C(=N\O)c1ccc(Cl)cc1 : upper level
Nc1c(C(=O)Nc2ccccc2F)sc2nc3c(cc12)CCCC3 : middle level
C[PH+](c1nc2ccccc2nc1[PH+](C)C(C)(C)C)C(C)(C)C.C[PH+](c1nc2ccccc2nc1[PH+](C)C(C)(C)C)C(C)(C)C.[Au+].[Cl-] (centres undefined) : lower level
Nc1n[nH]c2ccc([C@H]3[C@@H]4C5CCC(C5)[C@@H]4c4c(ccc5[nH]ncc45)N3S(=O)(=O)C3CC3)cc12 (some centres undefined) : middle level
CC/C=C\C[C@H](O)C/C=C1/C(=O)C=C[C@@H]1C/C=C\CCCC(=O)N(C)C : lower level
CCNCCNc1cc(C2CCCCC2)c(C#N)c2nc3ccccc3n12 : lower level
N#Cc1nc(-c2ccc(F)cc2)oc1S(=O)(=O)N1CCCCC1 : upper level

* * *

# Tested on: SK-MEL-5 melanoma
# protocol: NCI-60 one-dose screen, 48 h (100 = growth as untreated, 0 = no growth, -100 = all killed)
# experimental conditions: 10 µM unless noted
About 83,000 compounds went through this panel and 20% of them were active in at least one assay; those are over-represented in the sample as a whole.
# growth annotations
endpoint label: growth (%)

Cn1cc(C(=O)c2nc(-c3c[nH]c4ccccc34)no2)c2cc(F)ccc21 : 25.3
Nc1n[nH]c2ccc([C@H]3[C@@H]4C5CCC(C5)[C@@H]4c4c(ccc5[nH]ncc45)N3S(=O)(=O)C3CC3)cc12 (some centres not stated) : -22.4
COc1ccc(CNc2c3ccccc3nc3ccccc23)cc1 : 62.2
CCCOC(=O)Nc1nc2ccc(SCC(C)C)cc2s1 : 27.6
Cc1ccc(/C=C2\COc3ccc(O)cc3C2=O)cc1 : 97.7
C=C1C(=O)O[C@H]2[C@H]1CC/C(COC(=O)c1cc3ccccc3s1)=C\CC[C@@]1(C)O[C@@H]21 : -93.8
CCC1=C[C@@H]2C[C@]3(C(=O)OC)c4[nH]c5ccccc5c4CC[N@+](CC(=O)Nc4cc5c(cc4OC)N(C)[C@H]4[C@@](O)(C(=O)OC)[C@H](OC(C)=O)[C@]6(CC)C=CCN7CC[C@]54[C@@H]76)(C2)[C@H]13 : 101
COc1ccc(NC(=O)c2sc3nc(C)c(C(=O)/C=C/c4ccccc4)cc3c2N)cc1 : 74.3
O=C(c1ccncc1)N1N=C(c2ccc(Cl)cc2)C[C@H]1c1cn(-c2ccccc2)nc1-c1ccccc1 : 90.7
C=C1C(=O)O[C@H]2[C@H]1CC/C(COC(=O)NCc1ccc(Cn3c(=O)sn(CCCCC)c3=O)cc1)=C\CC[C@@]1(C)O[C@@H]21 : 91.6
O=C(/C=C/c1cccc(Cl)c1)c1ccc(Nc2nc(Nc3ccc(F)cc3)nc(Nc3ccc(Cl)cc3)n2)cc1 : 90.7
COCCn1cc(-c2nc(-c3cc4cccnc4[nH]3)cs2)c2cc(OC)ccc21 : 39.1
O=C(O)c1ccc(-n2cc(/C=N/Nc3ccccc3)c(-c3ccc(F)cc3F)n2)cc1 : 58
Clc1cc(Cl)c(Cl)c(-c2nnc(SCc3ccncc3Br)o2)c1 : 81.8
CCN(CC)c1ccc(\C=N/N=C(N)/C(N)=N\N=C/c2ccc(N(CC)CC)cc2)cc1 : 97.1
CCOC(=O)c1c(NC(=O)c2ccc(Cl)cc2)sc2c(CN(C)C)c(O)ccc12 : 87.4
c1csc(-c2ccc(CNc3c4ccccc4nc4ccccc34)cc2)c1 : -90.7
Cc1cc(S(=O)(=O)/N=C(\N)n2nc(C)c(C)c2C)c(SCc2ccccc2)cc1Cl : 94.7
CCCC/C(CC)=N\NS(=O)(=O)c1ccc([N+](=O)[O-])cc1 : 98.2
COCCOc1cc2ncnc(N3CCN(c4cc(S(C)(=O)=O)c(C)cc4Cl)CC3)c2cc1OCCOC : 77
Oc1c(Br)cc(Br)c2ccc(Cn3cc(-c4ccccc4C(F)(F)F)nn3)nc12 : 103
Cc1[nH]c(C(=O)Nc2ccc(C(=O)N3CCN(c4cc5c(cc4F)c(=O)c(C(=O)O)cn5C4CC4)CC3)cc2OC(C)C)c(Cl)c1Cl : 75.3
CC1CCc2c(C(=O)Nc3ncc(Cc4cccc([N+](=O)[O-])c4)s3)csc2C1 (configuration not stated) : 21.1
Nc1ncnc2c1N=C(c1ccc(Br)cc1)CC(c1cccc(Nc3ccnc4cc(C(F)(F)F)ccc34)c1)N2 (configuration not stated) : 49.5
O=C1C(=O)N(Cc2ccc(-c3ccccc3)cc2)c2ccc(OC(F)(F)F)cc21 : 92.2
Cn1cc(-c2csc(-c3c[nH]c4ccc(Br)cc34)n2)c2ccnc(Cl)c21 : 71.7
Clc1ccc(/C=N\N=C\c2ccc(Cl)c(Cl)c2)cc1Cl : 93.8
O=C(Nc1cccc(Cl)c1)Nc1cccc(Cn2c(=O)[nH]c3ccc(Oc4ncccn4)cc3c2=O)c1 : 25.5
O=C(C[C@]1(O)C(=O)Nc2ccccc21)c1cccc(C(F)(F)F)c1 : 91.7
COc1ccc(F)cc1/C=C/C(=O)/C=C(/C=C/c1cc(F)ccc1OC)OB(F)F : 53.6
COc1ccc(-c2cc(-c3ccc(Cl)cc3)c(C#N)c(=O)n2Cc2ccc(C(=O)Nc3ccccc3N)cc2)cc1 : 80.9
C=CCSc1nnc(NC(=O)CCl)s1 : 88
S=c1sc2c(Cl)nc(-c3cccnc3)nc2n1-c1ccccc1 : 76.3
O=S(=O)(NCCNc1nccc(-c2c(-c3ccc(F)c(O)c3)nc3occn23)n1)c1ccc(Cl)cc1 : 60.9
COc1ccc(OC)c(-c2nc(SCC(=O)c3ccc(C#N)cc3)[nH]c(=O)c2C#N)c1 : 106
Nc1cc(C(=O)NC[C@H]2CN(c3ccc(N4CCC(C(=O)O)CC4)cc3)C(=O)O2)ccc1Cl : 103
CC(=O)c1c(C)nc2ccccc2c1/C=C/c1ccc(F)cc1 : 69.5
